// SKGR/SL kcat/Km lookup, one value per entry
tgt: T1, quenched fluorescence peptidic substrate containing SKGR/SL (P4-P2' of the PAR-2 activation cleavage site, Ser 33 to Leu 38)
T1 chain: SKGRSL
Report only the number, with the unit M⁻¹ s⁻¹ understood.

| protein | SKGR/SL kcat/Km / M⁻¹ s⁻¹ |
| --- | --- |
| Q38H/I41S/D60bT/F60eS/Y60gW/D96K/F97G/ins97aV/T98P/F99L/C122S/G151H/Q175L/Q192D (protein) VVGGTDADEGEWPWQVSLHALGHGHSCGASLISPNWLVSAAHCYIDTRGSRWSDPTQWTAFLGLHDQSQRSAPGVQERRLKRIISHPFFNKGVPLDYDIALLELEKPAEYSSMVRPISLPDASHVFPAGKAIWVTGWGHTQYGGTHALILQKGEIRVINQTTCENLLPQLITPRMMCVGFLSGGVDSCDGDSGGPLSSVEADGRIFQAGVVSWGDGCAQRNKPGVYTRLPLFRDWIKENTGV | 6210 |
| Q38H/I41S/D60bT/F60eS/Y60gW/F97D/ins97aV/T98P/F99L/C122S/G151N/Q175L/Q192D (protein) VVGGTDADEGEWPWQVSLHALGHGHSCGASLISPNWLVSAAHCYIDTRGSRWSDPTQWTAFLGLHDQSQRSAPGVQERRLKRIISHPFFNDDVPLDYDIALLELEKPAEYSSMVRPISLPDASHVFPAGKAIWVTGWGHTQYGGTNALILQKGEIRVINQTTCENLLPQLITPRMMCVGFLSGGVDSCDGDSGGPLSSVEADGRIFQAGVVSWGDGCAQRNKPGVYTRLPLFRDWIKENTGV | 1730 |

Next protein, SKGR/SL kcat/Km to be filled in.
Query: Looking for the measured SKGR/SL kcat/Km of Q38H/I41S/D60bT/F60eS/Y60gW/D96V/F97G/ins97aV/T98P/F99L/C122S/G151H/Q175L/Q192D (protein) VVGGTDADEGEWPWQVSLHALGHGHSCGASLISPNWLVSAAHCYIDTRGSRWSDPTQWTAFLGLHDQSQRSAPGVQERRLKRIISHPFFNVGVPLDYDIALLELEKPAEYSSMVRPISLPDASHVFPAGKAIWVTGWGHTQYGGTHALILQKGEIRVINQTTCENLLPQLITPRMMCVGFLSGGVDSCDGDSGGPLSSVEADGRIFQAGVVSWGDGCAQRNKPGVYTRLPLFRDWIKENTGV , can you help?
Reply: 4990
